- Test system: Plasmodium falciparum
- MEASUREMENT_DESCRIPTION: Antiplasmodial activity growth inhibition of chloroquine-resistant Plasmodium falciparum BHz 26/86 after 72 hrs
- Type: functional, organism-based
- SETUP_CONDITIONS: BHz 26/86, 72 h
QUANTITY: IC90 (µM)
The figure you give is taken to be in µM; do not add the unit.

Prompt: Quick one: IC90 for COc1ccc([C@@H]2c3cc(OC)c(OC)cc3C(=O)[C@@H](C)[C@@H]2C)cc1OC ?
Completion: 4.6

Prompt: Quick one: IC90 for COc1cc2c(cc1OC)[C@@H](c1ccc3c(c1)OCO3)[C@@H](C)[C@H](C)C2=O ?
Completion: 3.35

Prompt: Quick one: IC90 for COc1ccc([C@@H]2c3cc4c(cc3C(=O)[C@@H](C)[C@H]2C)OCO4)cc1OC ?
Completion: 19.7

Prompt: Quick one: IC90 for COc1ccc([C@@H]2c3cc(OC)c(OC)cc3C(=O)[C@@H](C)[C@H]2C)cc1OC ?
Completion: 2.61

Prompt: Quick one: IC90 for CCN(CC)CCCC(C)Nc1ccnc2cc(Cl)ccc12 (configuration not stated) ?
Completion: 0.7

Prompt: Quick one: IC90 for COc1ccc([C@@H]2c3cc(OC)c(OC)cc3C(=O)[C@H](C)[C@H]2C)cc1OC ?
Completion: 3
